Would you mind telling me the reported pKd of each entry?
target: ANR-Y1; experiment: Fluorescence titration of ANR-Y1 suspension with analyte, 1:1 single-site binding fit; settings: 10 mM HEPES buffer (pH 7.3), ANR 250 µg/mL; >> = less than 10% change in emission intensity at >50 molar excess of analyte; error less than ±20%; read-out: Kd(ANR-Y1)
pKd: −log10 of the molar value.

// query Answer with pKd of NCC(=O)O measured for ANR-Y1.
// result < 3.00

// query Answer with pKd of N[C@H](CO)C(=O)O measured for ANR-Y1.
// result < 3.00

// query Answer with pKd of N[C@@H](Cc1c[nH]c2ccc(O)cc12)C(=O)O measured for ANR-Y1.
// result < 3.00

// query Answer with pKd of NCCc1ccc(O)c(O)c1 measured for ANR-Y1.
// result 5.47

// query Answer with pKd of Nc1ncnc2c1ncn2[C@@H]1O[C@H](CO)[C@@H](O)[C@H]1O measured for ANR-Y1.
// result < 3.00

// query Answer with pKd of NC[C@H](O)c1ccc(O)c(O)c1 [norepinephrine] measured for ANR-Y1.
// result 4.96

// query Answer with pKd of N[C@@H](Cc1c[nH]cn1)C(=O)O measured for ANR-Y1.
// result < 3.00

// query Answer with pKd of N[C@@H](Cc1ccccc1)C(=O)O measured for ANR-Y1.
// result < 3.00

// query Answer with pKd of NCCO measured for ANR-Y1.
// result < 3.00

// query Answer with pKd of NCCc1c[nH]c2ccccc12 measured for ANR-Y1.
// result 6.82

// query Answer with pKd of CC(=O)Nc1ccc(O)cc1 measured for ANR-Y1.
// result < 3.00

// query Answer with pKd of c1ccc2[nH]ccc2c1 measured for ANR-Y1.
// result < 3.00

---

target: ANR-L1; experiment: Fluorescence titration of ANR-L1 suspension with analyte, 1:1 single-site binding fit; conditions: ANR-L1 250 µg/mL, 10 mM HEPES buffer (pH 7.3) with 50 mM tryptophan added; read-out: Kd
Would you mind telling me the reported pKd of each entry?
Please keep in mind that pKd is minus log10 of the molar concentration; only the number is needed.

// query Provide pKd value for the following compound: NCCc1c[nH]c2ccc(O)cc12 [serotonin (5-HT), serotonin]
// result 4.85

// query Provide pKd value for the following compound: NCCc1c[nH]c2ccccc12 [tryptamine]
// result 4.57

// query Provide pKd value for the following compound: NCCc1ccc(O)c(O)c1 [dopamine]
// result 4.32

---

target: ANR-L2; assay: Fluorescence titration of ANR-L2 suspension with analyte, 1:1 single-site binding fit; conditions: ANR-L2, zeolite-L based
Experimental readout: Kd

// query Answer with Kd of NC[C@H](O)c1ccc(O)c(O)c1 [norepinephrine] measured for ANR-L2.
// result 13 µM

// query Answer with Kd of CNC[C@H](O)c1ccc(O)c(O)c1 [epinephrine] measured for ANR-L2.
// result 240 µM

---

biological target: ANR-L1; experiment: Fluorescence titration of ANR-L1 suspension with analyte, 1:1 single-site binding fit; conditions: read-out: approximated dissociation constant (Kd = 1/slope), Stern-Volmer plot; ANR-L1
Experimental readout: pKd
Please keep in mind that pKd is minus log10 of the molar concentration; only the number is needed.

// query Provide pKd value for the following compound: NCCc1c[nH]c2ccc(O)cc12 [serotonin (5-HT), serotonin]
// result 5.40

---

target: ANR-L2; assay: Fluorescence titration of ANR-L2 suspension with analyte, 1:1 single-site binding fit; details: read-out: approximated dissociation constant (Kd = 1/slope), Stern-Volmer plot; ANR-L2
Experimental readout: Kd (µM)
Please state the figure in µM; there is no need to write the unit.

// query Provide Kd value for the following molecule: NCCc1c[nH]c2ccc(O)cc12 [serotonin (5-HT), serotonin]
// result 2

---

target: ANR-L3; test: Fluorescence titration of ANR-L3 suspension with analyte, 1:1 single-site binding fit; settings: read-out: approximated dissociation constant (Kd = 1/slope), Stern-Volmer plot; ANR-L3
Experimental readout: pKd
Please keep in mind that pKd is minus log10 of the molar concentration; only the number is needed.

// query Provide pKd value for the following compound: NCCc1ccc(O)c(O)c1
// result 4.82

---

molecular target: ANR-L3; assay: Fluorescence titration of ANR-L3 suspension with analyte, 1:1 single-site binding fit; conditions: ANR-L3, neat chloroform (absence of acetic acid)
Experimental readout: Kd (µM)
Please state the figure in µM; there is no need to write the unit.

// query Provide Kd value for the following molecule: NCCc1c[nH]c2ccccc12
// result 15

---

target: ANR-Y2; test: Fluorescence titration of ANR-Y2 suspension with analyte, 1:1 single-site binding fit; settings: read-out: approximated dissociation constant (Kd = 1/slope), Stern-Volmer plot; ANR-Y2
Experimental readout: pKd
Please keep in mind that pKd is minus log10 of the molar concentration; only the number is needed.

// query Provide pKd value for the following molecule: NCCc1ccc(O)c(O)c1 [dopamine]
// result 5.00

---

target: ANR-L1; test: Fluorescence titration of ANR-L1 suspension with analyte, 1:1 single-site binding fit; details: 10 mM HEPES buffer (pH 7.3), ANR 250 µg/mL; >> = less than 10% change in emission intensity at >50 molar excess of analyte; error less than ±20%; read-out: Kd(ANR-L1)
Experimental readout: Kd

// query Provide Kd value for the following molecule: N[C@@H](Cc1c[nH]cn1)C(=O)O
// result > 1 mM

// query Provide Kd value for the following molecule: N[C@@H](Cc1ccc(O)c(O)c1)C(=O)O
// result > 1 mM

// query Provide Kd value for the following molecule: CC(=O)CCc1ccc(O)cc1
// result > 1 mM

// query Provide Kd value for the following molecule: N[C@@H](Cc1c[nH]c2ccccc12)C(=O)O
// result > 1 mM

// query Provide Kd value for the following molecule: NCCO
// result > 1 mM

// query Provide Kd value for the following molecule: N[C@@H](Cc1c[nH]c2ccc(O)cc12)C(=O)O
// result > 1 mM

// query Provide Kd value for the following molecule: NC(=O)[C@@H](N)Cc1c[nH]c2ccccc12
// result 0.032 mM

// query Provide Kd value for the following molecule: CCC(=O)Nc1ccc(Cl)c(Cl)c1
// result > 1 mM

// query Provide Kd value for the following molecule: NCCc1c[nH]c2ccccc12
// result 0.01 mM

// query Provide Kd value for the following molecule: COc1ccc2[nH]cc(CCNC(C)=O)c2c1
// result > 1 mM

// query Provide Kd value for the following molecule: O=C(O)Cc1c[nH]c2ccccc12
// result > 1 mM

---

target: ANR-L1; assay: Fluorescence titration of ANR-L1 suspension with analyte, 1:1 single-site binding fit; settings: read-out: single site dissociation constant Kd
Experimental readout: Kd (nM)
Please state the figure in nM; there is no need to write the unit.

// query Provide Kd value for the following compound: NCCc1c[nH]c2ccccc12
// result 3000

---

target: ANR-L3; test: Fluorescence titration of ANR-L3 suspension with analyte, 1:1 single-site binding fit; conditions: read-out: single site dissociation constant Kd; ANR-L3 250 µg/mL, chloroform:acetic acid (99:1)
Experimental readout: pKd
Please keep in mind that pKd is minus log10 of the molar concentration; only the number is needed.

// query Answer with pKd of NCCc1c[nH]c2ccccc12 [tryptamine] measured for ANR-L3.
// result 5.40

---

molecular target: ANR-L1; assay: Fluorescence titration of ANR-L1 suspension with analyte, 1:1 single-site binding fit; details: ANR-L1 250 µg/mL, water and aqueous buffer; read-out: single site dissociation constant Kd
pKd: −log10 of the molar value.
Experimental readout: pKd

// query Provide pKd value for the following compound: NCCc1c[nH]c2ccc(O)cc12
// result ~5.52

---

target: ANR-Y1; test: Fluorescence titration of ANR-Y1 suspension with analyte, 1:1 single-site binding fit; conditions: 10 mM HEPES buffer (pH 7.3), ANR 250 µg/mL; >> = less than 10% change in emission intensity at >50 molar excess of analyte; error less than ±20%; read-out: Kd(ANR-Y1)
Experimental readout: Kd

// query Provide Kd value for the following compound: CNC[C@H](O)c1cccc(O)c1
// result 55 µM

// query Provide Kd value for the following compound: COc1ccc2[nH]cc(CCNC(C)=O)c2c1
// result > 1000 µM

// query Provide Kd value for the following compound: N[C@@H](Cc1ccc(O)cc1)C(=O)O
// result > 1000 µM

// query Provide Kd value for the following compound: N[C@@H](Cc1ccc(O)c(O)c1)C(=O)O
// result > 1000 µM

// query Provide Kd value for the following compound: CCC(=O)Nc1ccc(Cl)c(Cl)c1
// result > 1000 µM

// query Provide Kd value for the following compound: NCC(O)c1ccc(O)cc1 (centres unmarked)
// result 11 µM

// query Provide Kd value for the following compound: NCCc1c[nH]c2ccc(O)cc12
// result 0.07 µM

// query Provide Kd value for the following compound: O=C(O)Cc1c[nH]c2ccccc12
// result > 1000 µM

// query Provide Kd value for the following compound: NCCCCCN
// result > 1000 µM

// query Provide Kd value for the following compound: NC(=O)[C@@H](N)Cc1c[nH]c2ccccc12
// result 0.11 µM

// query Provide Kd value for the following compound: N[C@@H](Cc1c[nH]c2ccccc12)C(=O)O
// result > 1000 µM
